target_under_test: BRD9-GFP (Homo sapiens, UniProt Q9H8M2)
Construct: CHYSEL (2A cis-acting hydrolase element) remnant after GFP; mCherry is split off as a separate protein (C); expressed in transfected cells; host or cells: HEK293A cells (Invitrogen R70507), lentiviral transduction with pLenti6-BRD9-GFP-CHYSEL-mCherry, blasticidin selection
Sequence (Q9H8M2 whole entry): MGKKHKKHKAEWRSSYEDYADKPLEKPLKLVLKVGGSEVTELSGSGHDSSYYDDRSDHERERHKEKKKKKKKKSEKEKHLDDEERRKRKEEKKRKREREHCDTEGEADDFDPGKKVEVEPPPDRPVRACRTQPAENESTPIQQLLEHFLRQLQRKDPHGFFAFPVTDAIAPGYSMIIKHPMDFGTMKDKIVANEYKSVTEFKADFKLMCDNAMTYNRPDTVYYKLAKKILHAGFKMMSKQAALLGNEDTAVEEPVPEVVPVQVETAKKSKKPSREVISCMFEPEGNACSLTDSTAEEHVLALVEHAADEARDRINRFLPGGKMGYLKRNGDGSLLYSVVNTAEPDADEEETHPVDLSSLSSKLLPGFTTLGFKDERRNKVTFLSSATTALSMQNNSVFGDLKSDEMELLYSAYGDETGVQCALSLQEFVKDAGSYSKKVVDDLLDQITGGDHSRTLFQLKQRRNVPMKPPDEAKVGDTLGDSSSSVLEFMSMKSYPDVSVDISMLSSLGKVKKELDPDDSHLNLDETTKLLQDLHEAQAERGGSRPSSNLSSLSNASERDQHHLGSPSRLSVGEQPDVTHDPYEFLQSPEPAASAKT
method_notes: BRD9-GFP protein abundance flow cytometry assay in HEK293A cells
Format: cell-based
condition_notes: HEK293A-BRD9-GFP-CHYSEL-mCherry cells, 24 h; % protein remaining at the concentration at which maximum degradation is seen
Let's look at some compounds and their measured BRD9 Deg Amax %.
reported_metric: BRD9 Deg Amax % (%)

1. COc1cc(-c2cn(C)c(=O)c3cnccc23)c(OC)cc1CN1CCC(OC2CCN(CCn3cccc(CN4CCC(=O)NC4=O)c3=O)CC2)CC1 13.59
2. COc1cc(-c2cn(C)c(=O)c3cnccc23)c(OC)cc1/C=C/C(=O)N1CCC(OC2CCN(C(=O)c3ccc(OC)c(N4CCC(=O)NC4=O)c3)CC2)CC1 12.02
3. COc1cc(-c2cn(C)c(=O)c3cnccc23)cc(OC)c1CN1CCC(OC2CCN(C(=O)COc3ccc(N4CCC(=O)NC4=O)cc3)CC2)CC1 13.19
4. CCCCn1cc(-c2cc(OC)c(OCC3CCN(CC4CCN(C(=O)c5ccc(OC)c(N6CCC(=O)NC6=O)c5)CC4)CC3)c(OC)c2)c2ccncc2c1=O 17.54
5. CCCCn1cc(-c2cc(OC)c(CCN3CCC(OC4CCN(C(=O)c5ccc(Cl)c(N6CCC(=O)NC6=O)c5)CC4)CC3)c(OC)c2)c2ccncc2c1=O 14.82
6. COc1cc(-c2cn(C)c(=O)c(C)c2C)cc(OC)c1CCN1CCC(OC2CCN(C(=O)c3ccc(Cl)c(N4CCC(=O)NC4=O)c3)CC2)CC1 12.12
7. COc1ccc(C(=O)N2CCC(OC3CCN(C(=O)/C=C/c4c(OC)cc(-c5cn(C)c(=O)c6cnccc56)cc4OC)CC3)CC2)cc1N1CCC(=O)NC1=O 15.11
8. COc1ccc(C(=O)N2CCC(OCCN3CCN(Cc4c(OC)cc(-c5cn(C)c(=O)c6cnccc56)cc4OC)CC3)CC2)cc1N1CCC(=O)NC1=O 13.80
9. CCCCn1cc(-c2ccc(O[C@H]3CCN(CC4CCN(C(=O)COc5ccc(C)c(N6CCC(=O)NC6=O)c5)CC4)C[C@@H]3F)c(OC)c2)c2ccncc2c1=O 13.02
10. CCCCn1cc(-c2ccc(O[C@H]3CC[C@@H](OC4CCN(C(=O)c5ccc(OC)c(N6CCC(=O)NC6=O)c5)CC4)CC3)cc2)c2ccncc2c1=O 18.38
11. CCCCn1cc(-c2ccc(OC3CCN(CC4CCN(C(=O)c5ccc(OC)c(N6CCC(=O)NC6=O)c5)CC4)CC3)cc2)c2ccncc2c1=O 17.34
12. COc1ccc(C(=O)N2CCC(CN3CCN(Cc4c(OC)cc(-c5cn(C)c(=O)c6cnccc56)cc4OC)CC3)CC2)cc1N1CCC(=O)NC1=O 13.31
13. COc1cc(-c2cn(C)c(=O)c(C)c2C)cc(OC)c1CCN1CCC(OC2CCN(C(=O)c3cccc(N4CCC(=O)NC4=O)c3)CC2)CC1 11.18
14. COc1cc(-c2cn(C)c(=O)c3cnccc23)c(OC)cc1CCN1CCC(OC2CCN(C(=O)c3ccc(Cl)c(N4CCC(=O)NC4=O)c3)CC2)CC1 16.72
15. COc1cc(-c2cn(C)c(=O)c(C)c2C)ccc1CN1CCN(CC2CCN(C(=O)c3ccc(Cl)c(N4CCC(=O)NC4=O)c3)CC2)CC1 33.06
